Tested on: Staphylococcus aureus
test details: Antibacterial activity against Staphylococcus aureus ATCC 6538 measured after 24 hrs by susceptibility assay
Type: functional
measured property: MIC

Using Staphylococcus aureus as the test system, report measured MIC of CC1(C)CC[C@]2(C(=O)NS(=O)(=O)c3ccccc3)CC[C@]3(C)C(=CC[C@@H]4[C@@]5(C)Cc6c([nH]c7ccccc67)C(C)(C)[C@@H]5CC[C@]43C)[C@@H]2C1 . > 256 µM

Using Staphylococcus aureus as the test system, report measured MIC of Cc1ccc(S(=O)(=O)NC(=O)[C@]23CCC(C)(C)C[C@H]2C2=CC[C@@H]4[C@@]5(C)Cc6c([nH]c7ccc(C(=O)O)cc67)C(C)(C)[C@@H]5CC[C@@]4(C)[C@]2(C)CC3)cc1 . 1 µM

Using Staphylococcus aureus as the test system, report measured MIC of COc1ccc(S(=O)(=O)NC(=O)[C@]23CCC(C)(C)C[C@H]2C2=CC[C@@H]4[C@@]5(C)Cc6c([nH]c7cc(C(=O)O)ccc67)C(C)(C)[C@@H]5CC[C@@]4(C)[C@]2(C)CC3)cc1 . 1 µM

Using Staphylococcus aureus as the test system, report measured MIC of Cc1ccc(S(=O)(=O)NC(=O)[C@]23CCC(C)(C)C[C@H]2C2=CC[C@@H]4[C@@]5(C)CCC(=O)C(C)(C)[C@@H]5CC[C@@]4(C)[C@]2(C)CC3)cc1 . > 256 µM

Using Staphylococcus aureus as the test system, report measured MIC of CC1(C)CC[C@]2(C(=O)NS(=O)(=O)c3ccccc3)CC[C@]3(C)C(=CC[C@@H]4[C@@]5(C)Cc6c([nH]c7ccc(Br)cc67)C(C)(C)[C@@H]5CC[C@]43C)[C@@H]2C1 . > 256 µM

Using Staphylococcus aureus as the test system, report measured MIC of CC1(C)CC[C@]2(C(=O)NS(=O)(=O)c3ccc(Cl)cc3)CC[C@]3(C)C(=CC[C@@H]4[C@@]5(C)Cc6c([nH]c7cc(C(=O)O)ccc67)C(C)(C)[C@@H]5CC[C@]43C)[C@@H]2C1 . 0.5 µM

Using Staphylococcus aureus as the test system, report measured MIC of Cc1ccc(S(=O)(=O)NC(=O)[C@]23CCC(C)(C)C[C@H]2C2=CC[C@@H]4[C@@]5(C)Cc6c([nH]c7cccc(C(=O)O)c67)C(C)(C)[C@@H]5CC[C@@]4(C)[C@]2(C)CC3)cc1 . 1 µM

Using Staphylococcus aureus as the test system, report measured MIC of CC(=O)c1cccc2c3c([nH]c12)C(C)(C)[C@@H]1CC[C@]2(C)[C@H](CC=C4[C@@H]5CC(C)(C)CC[C@]5(C(=O)NS(=O)(=O)c5ccccc5)CC[C@]42C)[C@@]1(C)C3 . 1 µM

Using Staphylococcus aureus as the test system, report measured MIC of CN1CCN(C(=O)[C@]23CCC(C)(C)C[C@H]2C2=CC[C@@H]4[C@@]5(C)Cc6c([nH]c7cccc(C(=O)O)c67)C(C)(C)[C@@H]5CC[C@@]4(C)[C@]2(C)CC3)CC1 . > 256 µM

Using Staphylococcus aureus as the test system, report measured MIC of CC1(C)CC[C@]2(C(=O)Nc3ccc(-c4ccccc4)cc3)CC[C@]3(C)C(=CC[C@@H]4[C@@]5(C)Cc6c([nH]c7cc(C(=O)O)ccc67)C(C)(C)[C@@H]5CC[C@]43C)[C@@H]2C1 . > 256 µM

====

System: Staphylococcus aureus
test details: Antibacterial activity against Staphylococcus aureus ATCC 6538 measured after 24 hrs by susceptibility assay
Format: functional
Note to self: use MET only for MIC readings below 1 µM; a reading exactly at 1 µM still gets NOT MET.

Input CC1(C)CC[C@]2(C(=O)Nc3ccc(-c4ccccc4)cc3)CC[C@]3(C)C(=CC[C@@H]4[C@@]5(C)Cc6c([nH]c7ccc(C(=O)O)cc67)C(C)(C)[C@@H]5CC[C@]43C)[C@@H]2C1 ; condition: MIC strictly below 1 µM. Does it hold? NOT MET

Input CN1CCN(C(=O)[C@]23CCC(C)(C)C[C@H]2C2=CC[C@@H]4[C@@]5(C)Cc6c([nH]c7c(C(=O)O)cccc67)C(C)(C)[C@@H]5CC[C@@]4(C)[C@]2(C)CC3)CC1 ; condition: MIC strictly below 1 µM. Does it hold? NOT MET

Input CC1(C)CC[C@]2(C(=O)NS(=O)(=O)c3ccc(C(=O)O)cc3)CC[C@]3(C)C(=CC[C@@H]4[C@@]5(C)Cc6c([nH]c7c(C(=O)O)cccc67)C(C)(C)[C@@H]5CC[C@]43C)[C@@H]2C1 ; condition: MIC strictly below 1 µM. Does it hold? MET

Input CC(=O)c1cccc2[nH]c3c(c12)C[C@]1(C)[C@H]2CC=C4[C@@H]5CC(C)(C)CC[C@]5(C(=O)NS(=O)(=O)c5ccccc5)CC[C@@]4(C)[C@]2(C)CC[C@H]1C3(C)C ; condition: MIC strictly below 1 µM. Does it hold? NOT MET

Input CC1(C)CC[C@]2(C(=O)NS(=O)(=O)c3ccccc3)CC[C@]3(C)C(=CC[C@@H]4[C@@]5(C)CCC(=O)C(C)(C)[C@@H]5CC[C@]43C)[C@@H]2C1 ; condition: MIC strictly below 1 µM. Does it hold? NOT MET

Input CC1(C)CC[C@]2(C(=O)O)CC[C@]3(C)C(=CC[C@@H]4[C@@]5(C)CC[C@H](O)C(C)(C)[C@@H]5CC[C@]43C)[C@@H]2C1 ; condition: MIC strictly below 1 µM. Does it hold? NOT MET

Input CN[C@H](CC(C)C)C(=O)N[C@H]1C(=O)N[C@@H](CC(N)=O)C(=O)N[C@H]2C(=O)N[C@H]3C(=O)N[C@H](C(=O)N[C@H](C(=O)O)c4cc(O)cc(O)c4-c4cc3ccc4O)[C@H](O)c3ccc(c(Cl)c3)Oc3cc2cc(c3O[C@@H]2O[C@H](CO)[C@@H](O)[C@H](O)[C@H]2O[C@H]2C[C@](C)(N)[C@H](O)[C@H](C)O2)Oc2ccc(cc2Cl)[C@H]1O ; condition: MIC strictly below 1 µM. Does it hold? MET

Input COc1cccc(OC)c1C(=O)N[C@@H]1C(=O)N2[C@@H]1SC(C)(C)[C@@H]2C(=O)O ; condition: MIC strictly below 1 µM. Does it hold? NOT MET

Input CC1(C)CC[C@]2(C(=O)NS(=O)(=O)c3ccc(C(=O)O)cc3)CC[C@]3(C)C(=CC[C@@H]4[C@@]5(C)CCC(=O)C(C)(C)[C@@H]5CC[C@]43C)[C@@H]2C1 ; condition: MIC strictly below 1 µM. Does it hold? NOT MET

Input CC1(C)CC[C@]2(C(=O)NS(=O)(=O)c3ccccc3)CC[C@]3(C)C(=CC[C@@H]4[C@@]5(C)Cc6c([nH]c7ccc(F)cc67)C(C)(C)[C@@H]5CC[C@]43C)[C@@H]2C1 ; condition: MIC strictly below 1 µM. Does it hold? NOT MET

Input CC1(C)CC[C@]2(C(=O)Nc3ccc(-c4ccccc4)cc3)CC[C@]3(C)C(=CC[C@@H]4[C@@]5(C)Cc6c([nH]c7cccc(C(=O)O)c67)C(C)(C)[C@@H]5CC[C@]43C)[C@@H]2C1 ; condition: MIC strictly below 1 µM. Does it hold? NOT MET

Input CC1(C)CC[C@]2(C(=O)NS(=O)(=O)c3ccc(C(=O)O)cc3)CC[C@]3(C)C(=CC[C@@H]4[C@@]5(C)Cc6c([nH]c7cccc(C(=O)O)c67)C(C)(C)[C@@H]5CC[C@]43C)[C@@H]2C1 ; condition: MIC strictly below 1 µM. Does it hold? NOT MET

Input CC1(C)CC[C@]2(C(=O)NS(=O)(=O)c3ccc(Cl)cc3)CC[C@]3(C)C(=CC[C@@H]4[C@@]5(C)Cc6c([nH]c7ccc(C(=O)O)cc67)C(C)(C)[C@@H]5CC[C@]43C)[C@@H]2C1 ; condition: MIC strictly below 1 µM. Does it hold? MET

Input CC1(C)CC[C@]2(C(=O)NS(=O)(=O)c3ccc(C(=O)O)cc3)CC[C@]3(C)C(=CC[C@@H]4[C@@]5(C)Cc6c([nH]c7ccc(C(=O)O)cc67)C(C)(C)[C@@H]5CC[C@]43C)[C@@H]2C1 ; condition: MIC strictly below 1 µM. Does it hold? NOT MET

====

System: Staphylococcus aureus
test details: Antibacterial activity against Staphylococcus aureus ATCC 6538 measured after 24 hrs by susceptibility assay
Format: functional
measured property: MIC

Please list MIC recorded for the compound CC1(C)CC[C@]2(C(=O)NS(=O)(=O)c3ccccc3)CC[C@]3(C)C(=CC[C@@H]4[C@@]5(C)Cc6c([nH]c7ccc(Cl)cc67)C(C)(C)[C@@H]5CC[C@]43C)[C@@H]2C1 > 256 µM

Please list MIC recorded for the compound CC1(C)CC[C@]2(C(=O)Nc3ccc(-c4ccccc4)cc3)CC[C@]3(C)C(=CC[C@@H]4[C@@]5(C)Cc6c([nH]c7c(C(=O)O)cccc67)C(C)(C)[C@@H]5CC[C@]43C)[C@@H]2C1 > 256 µM

Please list MIC recorded for the compound CN1CCN(C(=O)[C@]23CCC(C)(C)C[C@H]2C2=CC[C@@H]4[C@@]5(C)CCC(=O)C(C)(C)[C@@H]5CC[C@@]4(C)[C@]2(C)CC3)CC1 64 µM

Please list MIC recorded for the compound CC1(C)CC[C@]2(C(=O)NS(=O)(=O)c3ccc(Cl)cc3)CC[C@]3(C)C(=CC[C@@H]4[C@@]5(C)Cc6c([nH]c7c(C(=O)O)cccc67)C(C)(C)[C@@H]5CC[C@]43C)[C@@H]2C1 1 µM

Please list MIC recorded for the compound CC1(C)CC[C@]2(C(=O)NS(=O)(=O)c3ccccc3)CC[C@]3(C)C(=CC[C@@H]4[C@@]5(C)Cc6c([nH]c7ccc(C(=O)O)cc67)C(C)(C)[C@@H]5CC[C@]43C)[C@@H]2C1 1 µM
